Measured Mean % WT Binding, listed per entry for reference.
Target: human CD33 D79A (human, UniProt P20138 18-364)
Sequence (P20138 18-364 D79A limits assumed): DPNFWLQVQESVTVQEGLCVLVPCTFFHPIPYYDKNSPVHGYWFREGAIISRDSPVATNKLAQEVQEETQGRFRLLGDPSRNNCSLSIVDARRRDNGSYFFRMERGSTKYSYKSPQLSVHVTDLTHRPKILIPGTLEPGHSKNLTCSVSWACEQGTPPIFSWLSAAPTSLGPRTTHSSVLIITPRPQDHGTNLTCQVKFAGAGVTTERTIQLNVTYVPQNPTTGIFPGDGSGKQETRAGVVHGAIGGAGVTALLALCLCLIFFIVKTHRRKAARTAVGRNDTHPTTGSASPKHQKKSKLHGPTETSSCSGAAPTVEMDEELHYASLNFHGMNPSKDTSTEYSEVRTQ
Test: alanine scan, flow cytometry;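 also: HEK293-T cells transiently expressing single-residue alanine mutants of CD33 (alanine swapped to serine), antibody binding read by fluorescence in duplicate, background-subtracted, expressed relative to wild-type CD33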
State just the number; it will be interpreted in % WT.

// solved cases for Mean % WT Binding follow
BINDER	OBSERVED
Refmab #2 (antibody, V domains shown, Full-length format is human IgG1 Fc silent (PG-LALA); The alanine scan used IgG or Fab) VH: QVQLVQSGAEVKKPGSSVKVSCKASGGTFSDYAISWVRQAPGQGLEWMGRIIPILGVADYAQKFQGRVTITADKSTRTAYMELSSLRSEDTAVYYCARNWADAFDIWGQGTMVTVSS VL: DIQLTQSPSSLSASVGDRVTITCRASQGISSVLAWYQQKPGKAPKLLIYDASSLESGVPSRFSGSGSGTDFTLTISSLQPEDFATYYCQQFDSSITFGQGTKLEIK	102
Refmab #3 (antibody, V domains shown, Full-length format is human IgG1 Fc silent (PG-LALA); The alanine scan used IgG or Fab) VH: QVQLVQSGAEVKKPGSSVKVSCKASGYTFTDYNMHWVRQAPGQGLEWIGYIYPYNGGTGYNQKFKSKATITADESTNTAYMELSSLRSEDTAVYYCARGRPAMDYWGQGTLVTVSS VL: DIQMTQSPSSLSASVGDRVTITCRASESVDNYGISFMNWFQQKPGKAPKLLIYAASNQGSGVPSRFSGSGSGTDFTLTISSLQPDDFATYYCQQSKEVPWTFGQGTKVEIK	105
Refmab #4 (antibody, V domains shown, Full-length format is human IgG1 Fc silent (PG-LALA); The alanine scan used IgG or Fab) VH: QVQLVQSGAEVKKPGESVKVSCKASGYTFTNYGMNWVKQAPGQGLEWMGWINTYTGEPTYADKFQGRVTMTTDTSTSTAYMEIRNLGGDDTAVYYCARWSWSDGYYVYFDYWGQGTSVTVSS VL: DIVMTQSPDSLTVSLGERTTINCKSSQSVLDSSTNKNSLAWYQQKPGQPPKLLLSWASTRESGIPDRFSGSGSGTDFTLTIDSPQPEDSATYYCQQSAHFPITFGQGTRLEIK	74.5

Ask: What does the data say about its Mean % WT Binding? Entry: Refmab #1 (antibody, V domains shown, Full-length format is human IgG1 (Absolute Antibody Ab00283-10.0); The alanine scan used IgG or Fab; also called hP67.6) VH: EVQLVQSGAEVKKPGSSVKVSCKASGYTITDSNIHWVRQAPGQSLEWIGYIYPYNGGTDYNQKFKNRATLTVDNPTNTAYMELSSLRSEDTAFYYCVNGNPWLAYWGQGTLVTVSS VL: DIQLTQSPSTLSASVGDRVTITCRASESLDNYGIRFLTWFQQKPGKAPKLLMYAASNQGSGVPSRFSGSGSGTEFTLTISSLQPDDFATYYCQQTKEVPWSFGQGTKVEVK
Result: 88.1
